Here the recorded concentration at 1 h is given for each entry.
Test: In vivo tissue distribution test
Parameters: species or system ICR mice
Conditions: mouse, spleen, po; ICR mice, p.o. 100 mg/kg, 1 hr; read-out: Spleen concentration
Procedure: An in vivo tissue distribution test was performed in order to confirm the degree of drug distribution of the L-aspartate and hydrochloride according to the present invention in each organ. After 8-week-old ICR mice were purchased and adapted in the laboratory, each salt was orally administered to the mouse at a dose of 100 mg/kg. […] Then, P ratio is a ratio of permeation into muscle and calculated as intramuscular AUC/intraplasmic AUC.
Field: numeric (ng/g). Do not append units.

{"compound": "CON=C1CN(c2nc3c(cc2F)c(=O)c(C(=O)O)cn3C2CC2)C[C@@]1(C)CN.Cl [Hydrochloride (Comparative Example 3)]", "concentration at 1 h (ng/g)": 112000}

CO/N=C1/CN(c2nc3c(cc2F)c(=O)c(C(=O)O)cn3C2CC2)C[C@@]1(C)CN [L-aspartate (Example 1)] has a reported concentration at 1 h of 98100
